system: HS 578T breast; assay: NCI-60 one-dose screen, 48 h (100 = growth as untreated, 0 = no growth, -100 = all killed); conditions: 10 µM
Compounds without any hit were thinned out: in the full panel of roughly 83,000, 20% have a hit.
Listed next: entries and their corresponding growth.
Use % as the unit, but write only the number.

# count of solved cases: 3
>>> experimental_value("O=C(O)c1cn(C2CC2)c2cc(N3CCN(C(=O)c4cc(-c5ccc(Cl)cc5)nc5ccccc45)CC3)c(F)cc2c1=O")
94
>>> experimental_value("Cc1ccc(/C=C2/C(=O)N(C)c3ccc(S(=O)(=O)Nc4ccc(C(C)(C)C)cc4)cc32)s1")
88.7
>>> experimental_value("CCOC(=O)c1cc(C(=O)c2ccc(OC)c(OC)c2)n2c1ccc1ccc3cccnc3c12")
25

Next compound, growth to be filled in.
Problem: Which measured growth value corresponds to CC(=O)N[C@H](C(=O)N[C@@H](CCCNC(=N)N)C(=O)N[C@@H](CCCCN)C(=O)N[C@@H](CCCNC(=N)N)C(=O)N[C@]1(C)CCCCCC/C=C\CCC[C@@](C)(C(=O)N[C@@H](CCCNC(=N)N)C(=O)N[C@@H](CCC(=O)O)C(=O)N[C@@H](CC(C)C)C(=O)N[C@H](C(=O)N[C@@H](CCC(=O)O)C(N)=O)C(C)C)NC(=O)[C@H](CCC(N)=O)NC(=O)[C@H](CC(C)C)NC(=O)[C@H](CC(C)C)NC(=O)[C@H](CCCNC(=N)N)NC(=O)[C@H](CCCNC(=N)N)NC(=O)[C@H](CC(C)C)NC1=O)C(C)C ?
Solution: -33.9

====

tested on: UACC-257 melanoma; experiment: NCI-60 one-dose screen, 48 h (100 = growth as untreated, 0 = no growth, -100 = all killed); conditions: 10 µM
The panel holds about 83,000 compounds, 20% with a hit somewhere; the sample as a whole holds those more often.
ASSAY_ENDPOINT: growth (%)
Use % as the unit, but write only the number.

# count of solved cases: 3
>>> experimental_value("Cc1cc(C)nc(NS(=O)(=O)c2ccc(Nc3nc4nc(NCc5ccccc5)nc(-c5ccc(O)cc5)c4c(=O)[nH]3)cc2)n1")
66.1
>>> experimental_value("C=CCn1c(SCC(=O)Nc2ccc(C(=O)/C=C/c3cc(OC)c(OC)c(OC)c3)cc2)nnc1-c1cc(-c2ccc(Cl)cc2)nc2ccccc12")
102
>>> experimental_value("CN(C)CCN(Cc1ccccc1)c1ccc2ccccc2n1")
98

Problem: Which measured growth value corresponds to CCCc1cn(CC(=O)Nc2nc3ccccc3s2)nn1 ?
Solution: 106

Problem: Try this compound too: CC[C@@H](C(=O)[C@@H](C)[C@@H](O)[C@H](C)[C@@H]1O[C@@H]([C@@H](CC)C(=O)N(CC)CC)CC[C@@H]1C)C1O[C@]2(C=CC(=O)[C@]3(CC[C@@](C)([C@H]4CC[C@](O)(CC)[C@H](C)O4)O3)O2)[C@H](C)C[C@@H]1C (stereo not given in full)
Solution: 19.8

====

tested on: HCC-2998 colon; experiment: NCI-60 one-dose screen, 48 h (100 = growth as untreated, 0 = no growth, -100 = all killed); conditions: 10 µM
Compounds without any hit were thinned out: in the full panel of roughly 83,000, 20% have a hit.
Listed next: entries and their corresponding growth.
Use % as the unit, but write only the number.

# count of solved cases: 3
>>> experimental_value("O=C(/C=C/C=C/c1c(C2CC2)nc2ccccc2c1-c1ccc(F)cc1)c1cccs1")
-12.9
>>> experimental_value("O=[N+]([O-])c1ccc2ncccc2c1Cl")
106
>>> experimental_value("CO[C@H]1CC(O[C@@H]2/C(C)=C/C[C@@H]3C[C@@H](C[C@]4(C=C[C@H](C)[C@@H](C5CCCCC5)O4)O3)OC(=O)[C@@H]3C=C(C)[C@@H](O)[C@H]4OC/C(=C\\C=C\\[C@@H]2C)[C@]43O)O[C@@H](C)C1O[C@H]1C[C@H](OC)[C@@H](O)[C@H](C)O1 (some centres not stated)")
-92.3

Next compound, growth to be filled in.
Problem: Which measured growth value corresponds to Cc1noc(C)c1CSc1ccccc1C(=O)N1CCN(c2cccc(C(F)(F)F)c2)CC1 ?
Solution: 93.6

====

tested on: SK-MEL-2 melanoma; test: NCI-60 one-dose screen, 48 h (100 = growth as untreated, 0 = no growth, -100 = all killed); settings: 10 µM
Compounds without any hit were thinned out: in the full panel of roughly 83,000, 20% have a hit.
Threshold rule: growth greater than or equal to 20% is condition met; below that, condition not met.

Look over these answered cases.
>>> assigned_category("CC(=O)Nc1ccc(CC[C@H]2CCC/C=C/[C@@H]3C[C@H](O)C[C@H]3[C@H](O)/C=C/C(=O)O2)cc1")
"condition not met"
>>> assigned_category("COc1cc(-c2nn(-c3cccc(NC(=O)CCNc4ccc(N5CCOCC5)cc4)c3)cc2-c2ccncc2)ccc1Cl")
"condition not met"
>>> assigned_category("CCOC(=O)c1cc(C(=O)c2ccc(Cl)cc2)n2ccc(-c3cc[n+](CC(=O)c4ccc(OC)cc4)cc3)cc12")
"condition met"
>>> assigned_category("O=c1cn[nH]c2ccc(Br)cc12")
"condition met"
>>> assigned_category("CCOC(=O)c1cc(C(=O)c2cc(OC)c(OC)c(OC)c2)n2nc(C)ccc12")
"condition met"
>>> assigned_category("O=C(Nc1cccc2c1CCCC2)c1cc2ccccc2cc1O")
"condition met"

Problem: Check this molecule for growth at or above 20%: Nc1ncc(-c2cnn(C3CCNCC3)c2)cc1-c1nc2ccccc2o1
Solution: condition met

====

tested on: COLO 205 colon; assay: NCI-60 one-dose screen, 48 h (100 = growth as untreated, 0 = no growth, -100 = all killed); settings: 10 µM
The panel holds about 83,000 compounds, 20% with a hit somewhere; the sample as a whole holds those more often.
ASSAY_ENDPOINT: growth (%)
Use % as the unit, but write only the number.

# count of solved cases: 3
>>> experimental_value("CS(=O)(=O)c1nccc(-c2c(-c3cccc(OCc4ccc(F)cc4)c3)nc3sccn23)n1")
91.2
>>> experimental_value("CC(=O)Nc1ccc2c(c1)C(=O)c1cccc(C(=O)O)c1-2")
114
>>> experimental_value("COc1ccc(/C=C2\\CCCC3=C2NC(N)=NC3c2ccc(OC)cc2)cc1 (stereo not drawn)")
112

Problem: Which measured growth value corresponds to CCOC(=O)c1cc(C(=O)c2cc(OC)c(OC)c(OC)c2)n2nc(C)ccc12 ?
Solution: -39.4

Problem: Try this compound too: CCOC(=O)c1cc(C(=O)c2cc(OC)cc(OC)c2)n2nc(C)ccc12
Solution: -11.5

Problem: Try this compound too: CCN1C(=O)CC(SC2CC(=O)N(CC)C2=O)C1=O (stereo not drawn)
Solution: 81.4

Problem: Try this compound too: Oc1ccc(-c2[nH]c3ccccc3c2-c2nc3ccccc3o2)cc1
Solution: 59.1

Problem: Try this compound too: CCOC(=O)c1cocc1C(=O)O
Solution: 108

Problem: Try this compound too: CN(C)CCN(Cc1ccccc1)c1ccc2ccccc2n1
Solution: 89.5

Problem: Try this compound too: CCCCCC(=O)O[C@]1(C(C)=O)CCC2C3CCC4=CC(=O)CC[C@]4(C)C3CC[C@@]21C (stereo partly drawn)
Solution: 13.3

Problem: Try this compound too: CN(C)CCCOc1cccc(NC2=C(Cl)C(=O)C(Nc3cccc(OCCCN(C)C)c3)=C(Cl)C2=O)c1
Solution: -79.7

Problem: Try this compound too: C=CCN(CC=C)C(=O)[C@H](CC)[C@@H]1CC[C@@H](C)[C@@H]([C@H](C)[C@@H](O)[C@@H](C)C(=O)[C@H](CC)C2O[C@]3(C=CC(=O)[C@]4(CC[C@@](C)([C@H]5CC[C@](O)(CC)[C@H](C)O5)O4)O3)[C@H](C)C[C@@H]2C)O1 (stereo partly drawn)
Solution: 1.18

Problem: Try this compound too: COC1=CC(=O)OC(c2ccc(OC)cc2)C1 (stereo not drawn)
Solution: 108

Problem: Try this compound too: CCCc1cn(CC(=O)Nc2nc3ccccc3s2)nn1
Solution: 109

====

test system: SNB-19 CNS; test: NCI-60 one-dose screen, 48 h; conditions: 10 µM
Compounds without any hit were thinned out: in the full panel of roughly 83,000, 20% have a hit. Calls of active or inactive are those of the source. The calls were made as follows: active = growth percent below 10; inactive = the rest.
Write down the outcome that applies. Available outcomes: active, inactive

Look over these answered cases.
>>> assigned_category("CCCc1nc(C(C)(C)O)c(C(=O)O)n1Cc1ccc(-c2ccccc2-c2nn[nH]n2)cc1")
"inactive"
>>> assigned_category("Nc1ccc(/C=N/Nc2ccnc3c(O)cccc23)c2cccnc12")
"inactive"
>>> assigned_category("Cc1nn(-c2ccc(-c3ccc(OC(F)(F)F)cc3)cc2)c2nc(Cc3ccccc3)nc(N)c12")
"inactive"
>>> assigned_category("CN(C)CCCOc1ccccc1NC1=C(Cl)C(=O)C(Nc2ccccc2OCCCN(C)C)=C(Cl)C1=O")
"active"
>>> assigned_category("COc1cc(-c2nn(-c3cccc(NC(=O)NCCNS(=O)(=O)c4ccc(Cl)cc4)c3)cc2-c2ccncc2)ccc1Cl")
"inactive"
>>> assigned_category("C=CCn1c(SCC(=O)Nc2ccc(C(=O)/C=C/c3cc(OC)c(OC)c(OC)c3)cc2)nnc1-c1cc(-c2ccc(Cl)cc2)nc2ccccc12")
"inactive"
>>> assigned_category("CCCCC/C=C/C/C=C/CCCCCCCC1=NC(C)(C)CN1C(C)C")
"inactive"
>>> assigned_category("O=C(O)c1ccc(-n2cc(CNc3ccc(Cl)cc3)c(-c3ccccc3)n2)cc1")
"inactive"
>>> assigned_category("CCC(c1ccc(OC)cc1)C(CC)c1ccc(O)c(CN2CCN(C)CC2)c1 (stereo unspecified)")
"inactive"
>>> assigned_category("N#Cc1c(-c2ccc(Cl)cc2)csc1NC(=O)Nc1ccc(Cl)c(C(F)(F)F)c1")
"inactive"

Problem: Hi team, can someone confirm the assay call for O=C(Nc1cc(Cl)cc2c1-c1ccc(Cl)cc1C2O)C(Cl)Cl (stereo unspecified) ?
Solution: inactive

Problem: Try this compound too: COc1cc(C(=O)n2nc(-c3cc(OC)c(OC)c(OC)c3)nc2N)cc(OC)c1OC
Solution: inactive

Problem: Try this compound too: CCn1c(CSc2nc3ccccc3c(=O)n2CCc2ccccc2)n[nH]c1=S
Solution: inactive

Problem: Try this compound too: COc1ccc(/C(=N\N)C(=O)c2ccccc2)cc1 (tested in a mixture with another compound)
Solution: inactive

Problem: Try this compound too: CO[C@H]1CC(O[C@@H]2/C(C)=C/C[C@@H]3C[C@@H](C[C@]4(C=C[C@H](C)[C@@H](C5CCCCC5)O4)O3)OC(=O)[C@@H]3C=C(C)[C@@H](O)[C@H]4OC/C(=C\C=C\[C@@H]2C)[C@]43O)O[C@@H](C)C1O[C@H]1C[C@H](OC)[C@@H](O)[C@H](C)O1 (stereo partly specified)
Solution: active

Problem: Try this compound too: CN1CCN(CC(=O)Nc2cccc(-n3cc(-c4ccncc4)c(-c4ccc(Cl)c(O)c4)n3)c2)CC1
Solution: inactive
